- assayMethodText: Microsomal stability, rat liver microsomes
- Format: in vitro ADME
- conditionNotes: percentage of compound remaining after 60 minutes, 3 μM compound
measurementName: Microsomal Stability Rat (%)

N#CC1(C(=O)Nc2ccc(-c3cccc4nc(NC(=O)C5CC5)nn34)cc2)CC1	**** (**** 76-100)
O=C(Nc1nc2cccc(-c3ccc(C(=O)N4CCC(F)(F)C4)cc3)n2n1)C1CC1	**** (**** 76-100)
O=C(Nc1nc2cccc(-c3ccc4c(ccn4C(=O)CCc4ccccc4)c3)n2n1)C1CC1	* (* 0-25)
O=C(Nc1nc2cccc(-c3ccc(NS(=O)(=O)c4cccnc4)cc3)n2n1)C1CC1	*** (*** 51-75)

q: Reported Microsomal Stability Rat (%), molecule `O=C(Nc1nc2cccc(-c3ccc(CNc4ncccn4)cc3)n2n1)C1CC1` : ____
a: *** (*** 51-75)

* * *

- targetSystem: Recombinant human JAK1 catalytic domain (Homo sapiens (Human), UniProt P23458)
- Sequence (P23458 850-1154): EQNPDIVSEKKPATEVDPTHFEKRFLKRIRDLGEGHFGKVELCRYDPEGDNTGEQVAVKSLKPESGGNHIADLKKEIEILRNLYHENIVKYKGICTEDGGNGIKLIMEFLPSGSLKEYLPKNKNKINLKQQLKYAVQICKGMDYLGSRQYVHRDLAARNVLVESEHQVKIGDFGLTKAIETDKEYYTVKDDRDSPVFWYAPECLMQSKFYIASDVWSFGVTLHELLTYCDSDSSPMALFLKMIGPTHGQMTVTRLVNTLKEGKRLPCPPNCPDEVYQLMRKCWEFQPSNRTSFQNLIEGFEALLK
- assayMethodText: JAK1 inhibition assay
- Format: biochemical
- conditionNotes: semi-quantitative score
measurementName: IC50

q: Reported IC50, molecule Cc1ccc(COc2ccc(-c3cccc4nc(NC(=O)C5CC5)nn34)cc2)cn1 [Compound 197] : ____
a: < 100 nM

q: Reported IC50, molecule Cn1nc(C2CC2)cc1NC(=O)c1ccc(-c2cccc3nc(NC(=O)C4CC4)nn23)cc1 [Compound 218] : ____
a: 101 to 500 nM

q: Reported IC50, molecule O=C(Nc1nc2cccc(-c3ccc(C(=O)N4CCc5ccccc5C4)cc3)n2n1)C1CC1 [Compound 58] : ____
a: < 100 nM

q: Reported IC50, molecule O=C(Nc1nc2cccc(-c3ccc(C(=O)N4CCC(O)CC4)cc3)n2n1)C1CC1 [Compound 209] : ____
a: < 100 nM

q: Reported IC50, molecule CN1CCN(c2ccc(NCc3ccc(-c4cccc5nc(NC(=O)C6CC6)nn45)cc3)cn2)CC1 [Compound 235] : ____
a: < 100 nM

q: Reported IC50, molecule O=C(Nc1nc2cccc(-c3ccc(CNc4c(F)cccc4F)cc3)n2n1)C1CC1 [Compound 246] : ____
a: < 100 nM

q: Reported IC50, molecule O=C(NCCc1ccccc1)c1ccc(-c2cccc3nc(NC(=O)C4CC4)nn23)c(F)c1 [Compound 111] : ____
a: < 100 nM

q: Reported IC50, molecule O=C(Nc1nc2cccc(-c3ccc(CN4CCN(c5ncccn5)CC4)cc3)n2n1)C1CC1 [Compound 143] : ____
a: 101 to 500 nM

* * *

- assayMethodText: Microsomal stability, human liver microsomes
- Format: in vitro ADME
- conditionNotes: percentage of compound remaining after 60 minutes, 3 μM compound
measurementName: Microsomal Stability Human (%)

Cc1n[nH]c(C)c1CCOc1ccc(-c2cccc3nc(NC(=O)C4CC4)nn23)cc1	* (* 0-25)
O=C(NCCc1cccnc1)c1ccc(-c2cccc3nc(NC(=O)C4CC4)nn23)cc1	* (* 0-25)

* * *

- assayMethodText: Caco2 permeability (bi-directional)
- Type: in vitro ADME, human
- conditionNotes: human, pH 7.4; Caco-2, ratio of PappB>A/PappA>B
measurementName: efflux ratio at 1 h, 10 µM

Study these solved cases before continuing.
N#CCc1ccc(OCc2ccc(-c3cccc4nc(NC(=O)C5CC5)nn34)cc2)cc1	1.31
O=C(Nc1nc2cccc(-c3ccc(OCc4cccnc4)cc3)n2n1)C1CC1	0.89
O=C(NCCc1ccccc1)c1ccc(-c2cccc3nc(NC(=O)C4CC4)nn23)cc1	1.81

1 = O=C(Nc1nc2cccc(-c3ccc(CN4CCC(C(F)(F)F)CC4)cc3)n2n1)C1CC1
2 = O=C(Nc1nc2cccc(-c3ccc(C(=O)N4CCCN(Cc5ccccc5)CC4)cc3)n2n1)C1CC1
q: Hi! Which is lower in terms of efflux ratio at 1 h, 10 µM, the first one 1 or the second one 2 ? Identify your selection by its label.
a: 1
(1: 1.3, 2: 2.5)

* * *

- Tested on: MMP13 in SW1353 cells
- assayMethodText: OSM/IL-1β signaling assay (MMP13 levels in SW1353 cells);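 also: secreted MMP13 captured by antibody, activated with APMA and its activity read by fluorescence, inhibition scaled between vehicle-treated triggered wells (0%) and untriggered wells (100%)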
- Assay type: cell-based
- conditionNotes: Homo sapiens; SW1353 cells, OSM and IL-1β triggered, MMP13 levels 48 hours after triggering; read-out: MMP13 EC50
pEC50: −log10 of the molar value.
measurementName: pEC50

Study these solved cases before continuing.
N#Cc1ccc(COc2ccc(-c3cccc4nc(NC(=O)C5CC5)nn34)cc2)cn1	6.30 to 9.00
CC1(C)CN(C(=O)c2ccc(-c3cccc4nc(NC(=O)C5CC5)nn34)cc2)C1	6.00 to 6.30
O=C(Nc1ccc(-c2cccc3nc(NC(=O)C4CC4)nn23)cc1)c1ccccc1	< 6.00

q: Requested read-out pEC50, target or system MMP13 in SW1353 cells, entry `O=C(Nc1nc2cccc(-c3ccc(C(=O)N4CCCNCC4)cc3)n2n1)C1CC1`
a: < 6.00

q: Requested read-out pEC50, target or system MMP13 in SW1353 cells, entry `O=C(Nc1nc2cccc(-c3ccc(C(=O)N4CCCC4)cc3)n2n1)C1CC1`
a: < 6.00

q: Requested read-out pEC50, target or system MMP13 in SW1353 cells, entry O=C(Nc1nc2cccc(-c3ccc(C(=O)N4CCCC(CO)C4)cc3)n2n1)C1CC1 (stereo not drawn)
a: < 6.00

q: Requested read-out pEC50, target or system MMP13 in SW1353 cells, entry `O=C(Nc1nc2cccc(-c3ccc(NS(=O)(=O)c4ccccc4)cc3)n2n1)C1CC1`
a: 6.00 to 6.30

q: Requested read-out pEC50, target or system MMP13 in SW1353 cells, entry `O=C(Nc1nc2cccc(-c3ccc(OCc4ccccc4)c(F)c3)n2n1)C1CC1`
a: < 6.00

q: Requested read-out pEC50, target or system MMP13 in SW1353 cells, entry `O=C(NCCc1cnn(-c2ccccc2)c1)c1ccc(-c2cccc3nc(NC(=O)C4CC4)nn23)cc1`
a: 6.30 to 9.00

q: Requested read-out pEC50, target or system MMP13 in SW1353 cells, entry `CN(C)CCN(Cc1ccccc1)C(=O)c1ccc(-c2cccc3nc(NC(=O)C4CC4)nn23)cc1`
a: < 6.00

q: Requested read-out pEC50, target or system MMP13 in SW1353 cells, entry `O=C(NCc1ccccc1)c1ccc(-c2cccc3nc(NC(=O)C4CC4)nn23)cc1`
a: < 6.00

q: Requested read-out pEC50, target or system MMP13 in SW1353 cells, entry `Cc1n[nH]c(C)c1CCOc1ccc(-c2cccc3nc(NC(=O)C4CC4)nn23)cc1`
a: < 6.00

* * *

- targetSystem: Recombinant human JAK2 catalytic domain (Homo sapiens (Human))
- Sequence (O60674 808-1132): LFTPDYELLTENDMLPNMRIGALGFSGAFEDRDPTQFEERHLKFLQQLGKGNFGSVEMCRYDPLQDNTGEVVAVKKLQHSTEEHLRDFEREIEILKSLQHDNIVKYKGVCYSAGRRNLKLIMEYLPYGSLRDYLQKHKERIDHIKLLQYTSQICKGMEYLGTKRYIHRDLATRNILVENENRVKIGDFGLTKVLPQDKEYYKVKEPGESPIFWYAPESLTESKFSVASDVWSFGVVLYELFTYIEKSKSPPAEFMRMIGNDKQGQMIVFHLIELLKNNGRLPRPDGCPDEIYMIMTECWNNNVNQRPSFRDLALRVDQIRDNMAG
- assayMethodText: JAK2 inhibition assay
- Type: biochemical
- conditionNotes: semi-quantitative score
pIC50: −log10 of the molar value.
Recorded pIC50 values for a group of molecules are listed next.

q: Reported pIC50, molecule CN1CCN(c2ccc(-c3cccc4nc(NC(=O)C5CC5)nn34)cc2)CC1 [Compound 1] : ____
a: 6.00 to 6.30

q: Reported pIC50, molecule O=C(Nc1nc2cccc(-c3ccc(-c4ccccc4)cc3)n2n1)C1CC1 [Compound 7] : ____
a: 6.30 to 7.00

q: Reported pIC50, molecule CC1(C)CN(Cc2ccc(-c3cccc4nc(NC(=O)C5CC5)nn34)cc2)C1 [Compound 314] : ____
a: < 6.00

q: Reported pIC50, molecule O=C(Nc1nc2cccc(-c3ccc(CNc4cccnn4)cc3)n2n1)C1CC1 [Compound 222] : ____
a: 6.30 to 7.00

q: Reported pIC50, molecule O=C(Nc1nc2cccc(-c3ccc(NCc4ccccc4)cc3)n2n1)C1CC1 [Compound 72] : ____
a: > 7.00

* * *

- targetSystem: Recombinant human JAK1 catalytic domain (Homo sapiens (Human))
- assayMethodText: JAK1 inhibition assay
- Format: biochemical
- conditionNotes: semi-quantitative score
pIC50: −log10 of the molar value.
measurementName: pIC50

COC1CCN(C(=O)c2ccc(-c3cccc4nc(NC(=O)C5CC5)nn34)cc2)CC1 [Compound 293]	> 7.00

q: Reported pIC50, compound CC1(C)CN(C(=O)c2ccc(-c3cccc4nc(NC(=O)C5CC5)nn34)cc2)C1 [Compound 330] : ____
a: > 7.00

q: Reported pIC50, compound O=C(Nc1nc2cccc(-c3ccc(NCCc4cccnc4)nc3)n2n1)C1CC1 [Compound 172] : ____
a: 6.00 to 6.30

q: Reported pIC50, compound O=C(Nc1nc2cccc(-c3ccc(C(=O)N4CCC(F)(F)C4)cc3)n2n1)C1CC1 [Compound 271] : ____
a: > 7.00

q: Reported pIC50, compound O=C(Nc1nc2cccc(-c3ccc(CN4CCC(CO)CC4)cc3)n2n1)C1CC1 [Compound 250] : ____
a: 6.30 to 7.00

q: Reported pIC50, compound CN1CCN(c2ccc(-c3cccc4nc(NC(=O)C5CC5)nn34)cn2)CC1 [Compound 5] : ____
a: < 6.00

q: Reported pIC50, compound N#CC1(C(=O)Nc2ccc(-c3cccc4nc(NC(=O)C5CC5)nn34)cc2)CC1 [Compound 177] : ____
a: > 7.00
